Molecular target: Bcl-2 protein (histag-Bcl-2, UniProtKB P10415) (Homo sapiens (Human), UniProt P10415)
Sequence (P10415 whole entry): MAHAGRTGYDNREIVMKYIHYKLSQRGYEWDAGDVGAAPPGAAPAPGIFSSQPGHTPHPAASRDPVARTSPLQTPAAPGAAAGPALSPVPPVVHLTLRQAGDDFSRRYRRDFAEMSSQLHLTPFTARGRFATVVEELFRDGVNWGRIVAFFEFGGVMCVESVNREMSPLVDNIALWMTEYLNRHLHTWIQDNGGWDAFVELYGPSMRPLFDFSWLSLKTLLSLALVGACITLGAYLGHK
Experiment: Inhibition of Bcl-2 by the fluorescence polarisation technique
Assay type: binding
Settings: fluorescence polarisation test; incubation for 2 hours; read-out: IC50 (nM) Bcl-2 FP
Structures can show the parent of a compound that is named as a salt.

compound	unit_descriptor	IC50
C[C@@H]1Cc2ccccc2CN1C(=O)c1cc2c(cc1-c1cc(C(=O)N(C)c3ccc(O)cc3)c3n1CCCC3)CCN(C(=O)Cc1ccc(NCCN(C)C)cc1)C2 [Example 108, hydrochloride]	nM	2.7
CC(Cc1ccc(Cl)cc1)C(=O)N1Cc2cc(C(=O)N3Cc4ccccc4C[C@H]3C)c(-c3cc(C(=O)N(C)c4ccc(O)cc4)c4n3CCCC4)cc2C1 (stereo partly drawn) [Example 24]	nM	19
CN(C(=O)c1cc(-c2cc3c(cc2C(=O)N2Cc4ccccc4C[C@H]2CN2CCOCC2)CN(C(=O)Cc2cccnc2)C3)n2c1CCCC2)c1ccc(O)cc1 [Example 42]	nM	38
Cc1c(C(=O)N(C)c2ccc(O)cc2)cc(-c2cc3c(cc2C(=O)N2Cc4ccccc4C[C@H]2CN(C)C)CN(C(=O)C(F)(F)F)CC3)n1C [Example 782]	nM	51
CCc1ccc(OC(=O)N2CCc3cc(-c4cc(C(=O)N(C)c5ccc(O)cc5)c5n4CCCC5)c(C(=O)N4Cc5ccccc5C[C@H]4CN4CCOCC4)cc3C2)cc1 [Example 126]	nM	5.9
Cc1c(C(=O)N(C)c2ccc(O)cc2)cc(-c2cc3c(cc2C(=O)N2Cc4ccccc4C[C@H]2CN2CCN(C)CC2)CN(C(=O)Cc2ccccc2)CC3)n1C [Example 778]	nM	3.1
C[C@@H]1Cc2ccccc2CN1C(=O)c1cc2c(cc1-c1cc(C(=O)N(C)c3ccc(O)cc3)c3n1CCCC3)CNC2 [Example 10]	nM	127
CCCCN(C(=O)c1cc(-c2cc3c(cc2C(=O)N2Cc4ccccc4C[C@H]2CN2CCOCC2)CN(C(=O)Cc2ccccc2)CC3)n(C)c1C)c1ccc(O)cc1 [Example 232]	nM	2.9
C[C@@H]1Cc2ccccc2CN1C(=O)c1cc2c(cc1-c1cc(C(=O)N(C)c3ccc(O)cc3)c3n1CCCC3)CN(C(=O)Cc1csc(-c3cnccn3)n1)C2 [Example 31]	nM	7.4
Cc1c(C(=O)N(C)c2ccc(O)cc2)cc(-c2cc3c(cc2C(=O)N2Cc4ccccc4C[C@H]2C)CN(C(=O)Oc2ccccc2)C3)n1C [Example 63]	nM	4.4
Cc1ccc(OC(=O)N2CCc3cc(-c4cc(C(=O)N(C)c5ccccc5)c(C)n4C)c(C(=O)N4Cc5ccccc5C[C@H]4C)cc3C2)cc1 [Example 785]	nM	3.3
CCS(=O)(=O)N1CCc2cc(-c3cc(C(=O)N(C)c4ccc(O)cc4)c4n3CCCC4)c(C(=O)N3Cc4ccccc4C[C@H]3C)cc2C1 [Example 56]	nM	3.8

Taken from patent US9809574B2.
